- Test system: CYP1A2, CYP2C9, CYP2C19, CYP2D6, CYP3A4
- ASSAY NOTES: in vitro
- TEST SETTINGS: human, microsomes
MEASURED ENDPOINT: IC50 at 15 min

-- ask What value of IC50 at 15 min has been reported for the following compound? Cc1cnc(C(=O)Nc2ccc(F)c(C3(C)N=C(N)CCS3(=O)=O)c2)cn1 (stereo not shown) [Compound I-19]
-- reply > 17 µM

---

- TEST TARGET: Recombinant human BACE1 (Homo sapiens, UniProt P56817)
- Construct: purchased R&D Systems
- Sequence (P56817 46-501): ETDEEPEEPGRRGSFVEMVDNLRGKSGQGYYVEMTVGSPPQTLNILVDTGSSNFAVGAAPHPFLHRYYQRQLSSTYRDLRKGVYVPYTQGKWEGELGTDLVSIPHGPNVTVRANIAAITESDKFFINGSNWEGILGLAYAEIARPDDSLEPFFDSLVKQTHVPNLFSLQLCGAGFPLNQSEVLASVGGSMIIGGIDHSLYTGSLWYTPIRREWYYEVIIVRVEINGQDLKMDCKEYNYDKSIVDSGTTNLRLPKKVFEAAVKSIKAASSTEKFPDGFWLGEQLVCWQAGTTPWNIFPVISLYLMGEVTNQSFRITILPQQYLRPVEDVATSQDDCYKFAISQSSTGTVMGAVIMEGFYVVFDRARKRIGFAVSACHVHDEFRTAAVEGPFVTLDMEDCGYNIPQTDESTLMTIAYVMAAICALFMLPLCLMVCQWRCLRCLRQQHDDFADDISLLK
- ASSAY NOTES: Assay of BACE1 inhibiting activity
- Format: biochemical
- TEST SETTINGS: Recombinant human BACE1 7.4 nmol/L, substrate peptide 18 nmol/L, pH 5.0, 30° C., 3 hours; read-out: Test example 1 IC50 (BACE1 inhibiting activity)
Would you mind telling me the reported pIC50 of each entry?
// field semantics: pIC50 = negative decimal log of concentration (mol/L)

-- ask Form field - read-out: pIC50; system: Recombinant human BACE1 (Homo sapiens, UniProt P56817); submitted item: CC1(c2cc(NC(=O)c3ccc(C#N)cn3)ccc2F)N=C(N)c2ccc(F)cc2O1 (stereo not drawn) [Compound I-12]
-- reply 7.21

-- ask Form field - read-out: pIC50; system: Recombinant human BACE1 (Homo sapiens, UniProt P56817); submitted item: COc1cnc(C(=O)Nc2ccc(F)c(C3(C)N=C(N)c4ccccc4S3)c2)cn1 (stereo not drawn) [Compound I-8]
-- reply 7.18

-- ask Form field - read-out: pIC50; system: Recombinant human BACE1 (Homo sapiens, UniProt P56817); submitted item: CC1(c2cc(NC(=O)c3ncc(Cl)cc3Cl)ccc2F)N=C(N)CCS1 (stereo not drawn) [Compound I-2]
-- reply 8.00

---

- ASSAY NOTES: Brain distribution studies
- Format: in vivo
- TEST SETTINGS: rat, intravenous 0.5 mg/mL/kg, 30 minutes later, read-out: Brain Kp value (area ratio brain/plasma)
- Procedure: Intravenous administration is carried out to a rat by 0.5 mg/mL/kg dosage of a text compound. […] Then, the brain was extracted and 20-25% of homogenate thereof was prepared with distilled water. On the other hand, the obtained blood is used as plasma after centrifuging. Then, to the brain sample was added the control plasma at 1:1. To the plasma samples was added the control brains at 1:1. Each sample was measured using LC/MS/MS. […]
MEASURED ENDPOINT: Kp at 0.5 h

-- ask What value of Kp at 0.5 h has been reported for the following compound? CC1(c2cc(NC(=O)c3ccc(C#N)cn3)ccc2F)N=C(N)c2cc(F)ccc2O1 (stereo not shown)
-- reply 5.8

---

- ASSAY NOTES: Solubility test (Test Example 7(1))
- Assay type: physicochemical
- TEST SETTINGS: aqueous buffer, kinetic from dmso stock; medium (JP-I, JP-II), 2% DMSO solution, after 4 hours; read-out: Solubility assessed by 3 stages from turbidity
MEASURED ENDPOINT: solubility at 4 h

-- ask What value of solubility at 4 h has been reported for the following compound? CC1(c2cc(NC(=O)c3ccc(C#N)cn3)ccc2F)N=C(N)c2cc(N)ccc2O1 (stereo not shown) [Compound I-9]
-- reply > 40 µM
